Experimental Target: human dopamine D3 receptors (Homo sapiens, UniProt P35462)
Construct: expressed in transfected cells; membranes used
Sequence (P35462 whole entry): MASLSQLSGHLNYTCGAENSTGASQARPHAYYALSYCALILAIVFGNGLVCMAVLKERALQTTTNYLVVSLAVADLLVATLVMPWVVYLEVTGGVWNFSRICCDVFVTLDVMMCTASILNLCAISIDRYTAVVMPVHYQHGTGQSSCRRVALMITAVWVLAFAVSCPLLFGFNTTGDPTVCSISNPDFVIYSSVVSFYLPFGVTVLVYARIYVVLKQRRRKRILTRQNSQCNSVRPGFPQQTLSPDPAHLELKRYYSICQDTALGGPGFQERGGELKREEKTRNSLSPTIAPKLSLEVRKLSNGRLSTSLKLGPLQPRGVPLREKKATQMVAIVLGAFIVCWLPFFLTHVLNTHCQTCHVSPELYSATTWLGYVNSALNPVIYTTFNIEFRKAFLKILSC
Method Summary: Dopamine D3 receptor binding, displacement of [125I]-iodosulpride
Assay Endpoint: pKi
The meaning of pKi here: minus log10 of the concentration in molar units.

These recorded examples may help you get a feel for the data.
Molecule: CCCN1CCc2ccc(NS(=O)(=O)c3ccc(C)cc3)cc2CC1.O=C(O)C(F)(F)F [Example 11, Trifluoroacetate]
Recorded Number: 8.33
//
Molecule: CCCN1CCc2ccc(NS(=O)(=O)c3cc(Cl)sc3Cl)cc2CC1.O=C(O)C(F)(F)F [Example 22, Trifluoroacetate]
Recorded Number: 7.89
//
Molecule: CCCN1CCc2ccc(NS(=O)(=O)c3ccc(Cl)s3)cc2CC1.O=C(O)C(F)(F)F [Example 21, Trifluoroacetate]
Recorded Number: 7.80

Turning now to a further molecule:
// field: pKi; key: CCCN1CCc2ccc(NS(=O)(=O)c3ccc(Br)cc3)cc2CC1.O=C(O)C(F)(F)F [Example 19, Trifluoroacetate] ; value = 8.52
